test: phase I plasma pharmacokinetics (non-compartmental, LC-MS/MS); type: in vivo, human; settings: human; multiple oral administration, 220 mg larotinib mesylate, steady state, plasma; read-out: AUCτ,ss, mean (min–max)
Where a name gives a salt, the structure may show the parent alone.
measurement-name: AUC (ng·h/mL)
// note: answer is a bare numeric in ng·h/mL

For COc1cc2ncnc(Nc3ccc(F)c(Cl)c3)c2cc1OCCCN1C[C@@H]2OCCO[C@@H]2C1 [larotinib mesylate] , what is its reported AUC?
10300

----------
assay: phase I plasma pharmacokinetics (non-compartmental, LC-MS/MS); format: in vivo, human; conditions: human, plasma, po, 400 mg, single oral administration, 400 mg larotinib mesylate, plasma; read-out: AUC0-t, mean (min–max)
Structures can show the parent of a compound that is named as a salt.
measurement-name: AUC(0-t) (ng·h/mL)
// note: answer is a bare numeric in ng·h/mL

For COc1cc2ncnc(Nc3ccc(F)c(Cl)c3)c2cc1OCCCN1C[C@@H]2OCCO[C@@H]2C1 [larotinib mesylate] , what is its reported AUC(0-t)?
7440
